meta.source: ChEMBL document CHEMBL1123592

Provide the reported logP of each item.
Test: Partition coefficient (logP)
Type: physicochemical
Conditions: octanol/water
Enter a number only.

[ask] Report measured logP; entry is CCCCCCCC(=O)Oc1c(C)ccc(CC[C@@H](C)[C@H](O)[C@H](C)C(=O)[C@H](CC)[C@H]2O[C@](CC)([C@H]3CC[C@](O)(CC)[C@H](C)O3)C[C@@H]2C)c1C(=O)O
[reply] 2.21

[ask] Report measured logP; entry is CC[C@@H](C(=O)[C@@H](C)[C@@H](O)[C@H](C)CCc1c([N+](=O)[O-])cc(C)c(O)c1C(=O)O)[C@H]1O[C@](CC)([C@H]2CC[C@](O)(CC)[C@H](C)O2)C[C@@H]1C
[reply] 2.46

[ask] Report measured logP; entry is CC[C@@H](C(=O)[C@@H](C)[C@@H](O)[C@H](C)CCc1c(NC(C)=O)cc(C)c(O)c1C(=O)O)[C@H]1O[C@](CC)([C@H]2CC[C@](O)(CC)[C@H](C)O2)C[C@@H]1C
[reply] 1.04

[ask] Report measured logP; entry is CCCCCCCCCC(=O)Oc1c(C)ccc(CC[C@@H](C)[C@H](O)[C@H](C)C(=O)[C@H](CC)[C@H]2O[C@](CC)([C@H]3CC[C@](O)(CC)[C@H](C)O3)C[C@@H]2C)c1C(=O)O
[reply] 2.75
